Catalogue of GI50 values
test system: OVCAR-5; test: NCI tumour cell line growth inhibition, 48 h
Calls of active or inactive are those of the source. Cut-off read from the data, not from the text of the source: active = GI50 up to about 1.1 µM and inactive = higher.

Some molecules with recorded GI50:
molecule=O=S(=O)(Cc1nc2ccccc2s1)c1nc2ccccc2s1 attribute_measured=GI50 result="20 µM (inactive)"
molecule="CCOC(=O)C1C(=O)C=C(c2cc(C)ccc2O)CC1c1cccc(Cl)c1 (stereo unspecified)" attribute_measured=GI50 result="43.7 µM (inactive)"
molecule=Oc1cc(Cl)cc2cccnc12 attribute_measured=GI50 result="4.85 µM (inactive)"

Request: Report GI50 for COc1ccc(-c2oc3cc(OC(C)=O)cc(OC(C)=O)c3c(=O)c2OC)cc1 please.
Result: 23.3 µM (inactive)

Request: Report GI50 for CC(=O)OC12CC[N+]3(C)CCCCC3C1=Nc1ccccc12 (stereo unspecified) please.
Result: > 100 µM (inactive)

Request: Report GI50 for Cn1cc(S(=O)(=O)NC(=O)Nc2ccc(Cl)cc2)c2ccccc21 please.
Result: 46.1 µM (inactive)
